MEASUREMENT TARGET: human-type OT7T022 (hOT7T022) G protein-coupled receptor protein (human, UniProt Q9GZQ6 1-430)
Sequence (Q9GZQ6 whole entry): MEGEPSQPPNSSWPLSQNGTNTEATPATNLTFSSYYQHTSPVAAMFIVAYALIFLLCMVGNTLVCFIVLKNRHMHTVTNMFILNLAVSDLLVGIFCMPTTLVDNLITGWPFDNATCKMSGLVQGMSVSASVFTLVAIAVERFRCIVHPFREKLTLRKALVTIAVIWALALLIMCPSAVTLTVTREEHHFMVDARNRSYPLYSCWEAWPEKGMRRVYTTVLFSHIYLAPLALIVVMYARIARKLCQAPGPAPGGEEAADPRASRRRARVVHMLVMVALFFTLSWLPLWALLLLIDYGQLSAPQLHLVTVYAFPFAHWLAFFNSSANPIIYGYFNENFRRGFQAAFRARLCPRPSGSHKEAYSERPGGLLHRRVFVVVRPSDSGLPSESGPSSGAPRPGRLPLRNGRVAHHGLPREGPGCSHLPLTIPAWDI
PROTOCOL: cell-based or functional assay
No end group written: not given here.
What ED50, inhibition of intracellular cAMP increase by forskolin treatment was measured for each of the following?

Use these answered entries as a reference point.
What value of ED50, inhibition of intracellular cAMP increase by forskolin treatment has been reported for the following binder? SVTFQELKDWGAKKDIKMSPAPANKVPHSAANLPLRF (ends and bridges not checked) [rRFRP-1-37] 30 nM

And then SLNFEELKDWGPKNVIKMSTPAVNKMPHSFANLPLRF-NH2 [hRFRP-1-37] , what is it? 21 nM

And then PQRF-NH2 [PQRF amide (Pro-Gln-Arg-Phe-NH2)] , what is it? ≥ 1000 nM

API: the following record is the query input.
What value of ED50, inhibition of intracellular cAMP increase by forskolin treatment has been reported for the following binder? MPHSFANLPLRF-NH2 [Met-Pro-His-Ser-Phe-Ala-Asn-Leu-Pro-Leu-Arg-Phe-NH2 (MPHSFANLPLRF amide)] 4.5 nM
